Ref: ChEMBL document CHEMBL3797162

biological target: Sodium-dependent serotonin transporter (Homo sapiens, UniProt P31645); experiment: Inhibition of wild-type human SERT expressed in HEK293 MSR cells assessed as [3H]-5-HT uptake preincubated for 30 mins followed addition of [3H]-5HT and compound for 10 mins by micro-scintillation counter
Sequence (P31645 whole entry): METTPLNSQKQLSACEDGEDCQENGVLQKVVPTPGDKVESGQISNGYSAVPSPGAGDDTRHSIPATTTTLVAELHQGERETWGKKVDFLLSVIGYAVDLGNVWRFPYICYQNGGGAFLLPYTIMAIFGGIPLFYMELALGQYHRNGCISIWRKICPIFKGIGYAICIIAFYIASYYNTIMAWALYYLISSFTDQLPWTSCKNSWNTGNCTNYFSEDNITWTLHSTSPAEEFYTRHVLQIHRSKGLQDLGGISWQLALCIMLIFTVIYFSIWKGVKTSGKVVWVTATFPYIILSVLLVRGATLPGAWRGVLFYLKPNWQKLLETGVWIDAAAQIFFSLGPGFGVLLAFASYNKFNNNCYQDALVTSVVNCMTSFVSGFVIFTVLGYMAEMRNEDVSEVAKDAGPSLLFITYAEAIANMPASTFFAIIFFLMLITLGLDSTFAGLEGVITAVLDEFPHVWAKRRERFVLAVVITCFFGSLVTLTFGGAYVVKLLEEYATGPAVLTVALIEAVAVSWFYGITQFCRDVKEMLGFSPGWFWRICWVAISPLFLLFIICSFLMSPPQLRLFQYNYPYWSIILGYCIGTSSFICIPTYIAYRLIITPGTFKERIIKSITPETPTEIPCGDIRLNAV
endpoint.name: Ki (µM)

                               smiles_input                              study_target  readout_number
0  CN(C)CCCN1c2ccccc2CCc2ccc(C#CCOCc3cccc4ccccc34)cc21  Sodium-dependent serotonin transporter (Homo sapiens, UniProt P31645)            0.59

a = CN(C)CCCN1c2ccccc2CCc2ccc(CCCOCc3cccc4ccccc34)cc21
b = C#Cc1ccc2c(c1)N(CCCN(C)C)c1ccccc1CC2
c = CN(C)CCCN1c2ccccc2CCc2ccc(C#CCO)cc21
d = CN(C)CCCN1c2ccccc2CCc2ccc(C#CCOCCOCCSc3cccc4ccccc34)cc21
Please order the records by their reported Ki, lowest number first. Output spec: labels arranged per the requested ranking. c, b, a, d

----------
molecular target: Sodium-dependent serotonin transporter (Homo sapiens, UniProt P31645, W103A); assay: Inhibition of human SERT W103A mutant expressed in HEK293 MSR cells assessed as [3H]-5-HT uptake preincubated for 30 mins followed addition of [3H]-5HT and compound for 10 mins by micro-scintillation counter
Sequence (P31645 whole entry W103A): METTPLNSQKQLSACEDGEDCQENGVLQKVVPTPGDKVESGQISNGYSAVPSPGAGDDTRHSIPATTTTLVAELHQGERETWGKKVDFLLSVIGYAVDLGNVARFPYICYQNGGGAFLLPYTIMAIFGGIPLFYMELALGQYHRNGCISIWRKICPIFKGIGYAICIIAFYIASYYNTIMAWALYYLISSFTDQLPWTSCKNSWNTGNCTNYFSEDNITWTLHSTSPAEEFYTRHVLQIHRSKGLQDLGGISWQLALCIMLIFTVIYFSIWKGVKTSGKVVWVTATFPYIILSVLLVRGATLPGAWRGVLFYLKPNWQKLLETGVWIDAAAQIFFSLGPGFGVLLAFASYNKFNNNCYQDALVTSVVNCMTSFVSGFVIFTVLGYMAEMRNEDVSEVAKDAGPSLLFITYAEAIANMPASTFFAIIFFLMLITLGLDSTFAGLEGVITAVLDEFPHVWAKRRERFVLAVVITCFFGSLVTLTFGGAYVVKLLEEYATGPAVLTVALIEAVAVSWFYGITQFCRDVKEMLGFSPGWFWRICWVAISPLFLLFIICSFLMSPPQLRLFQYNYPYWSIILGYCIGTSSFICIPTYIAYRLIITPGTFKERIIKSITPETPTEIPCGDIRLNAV
endpoint.name: IC50 (nM)

Worked cases, answers included:
>>> df
                               smiles_input  endpoint_name  readout_number
0      CN(C)CCCN1c2ccccc2CCc2ccc(C#CCO)cc21           IC50              60
1  CN(C)CCCN1c2ccccc2CCc2ccc(C#CCOCCCOc3cccc4ccccc34)cc21           IC50             940
2  CN(C)CCCN1c2ccccc2CCc2ccc(C#CCOCCOc3ccc4ccccc4c3)cc21           IC50             440

a = CN(C)CCCN1c2ccccc2CCc2ccc(CCCOCc3cccc4ccccc34)cc21
b = CN(C)CCCN1c2ccccc2CCc2ccc(C#CCOCc3cccc4ccccc34)cc21
Between the entries labeled a and b , whose measured IC50 is lower? Please respond with the label that marks your chosen entry. b
(b: 340 nM, a: 610 nM)

----------
biological target: Sodium-dependent serotonin transporter (Homo sapiens, UniProt P31645, W103A); assay: Inhibition of human SERT W103A mutant expressed in HEK293 MSR cells assessed as [3H]-5-HT uptake preincubated for 30 mins followed addition of [3H]-5HT and compound for 10 mins by micro-scintillation counter
endpoint.name: IC50 (nM)

a = CN(C)CCCN1c2ccccc2CCc2ccc(C#CCOCCOCCOc3cccc4ccccc34)cc21
b = CN(C)CCCN1c2ccccc2CCc2ccc(C#CCOCCCN3c4ccccc4CCc4ccccc43)cc21
c = CN(C)CCCN1c2ccccc2CCc2ccc(CCCOCCOCCc3cccc4ccccc34)cc21
Please order the records by their reported IC50, lowest number first. Output spec: labels arranged per the requested ranking. c, a, b
(c: 280 nM, a: 420 nM, b: 1600 nM)

----------
target: Sodium-dependent serotonin transporter (Homo sapiens, UniProt P31645, I179C); experiment: Inhibition of human SERT I179C mutant expressed in HEK293 MSR cells assessed as [3H]-5-HT uptake preincubated for 30 mins followed addition of [3H]-5HT and compound for 10 mins by micro-scintillation counter
Sequence (P31645 whole entry I179C): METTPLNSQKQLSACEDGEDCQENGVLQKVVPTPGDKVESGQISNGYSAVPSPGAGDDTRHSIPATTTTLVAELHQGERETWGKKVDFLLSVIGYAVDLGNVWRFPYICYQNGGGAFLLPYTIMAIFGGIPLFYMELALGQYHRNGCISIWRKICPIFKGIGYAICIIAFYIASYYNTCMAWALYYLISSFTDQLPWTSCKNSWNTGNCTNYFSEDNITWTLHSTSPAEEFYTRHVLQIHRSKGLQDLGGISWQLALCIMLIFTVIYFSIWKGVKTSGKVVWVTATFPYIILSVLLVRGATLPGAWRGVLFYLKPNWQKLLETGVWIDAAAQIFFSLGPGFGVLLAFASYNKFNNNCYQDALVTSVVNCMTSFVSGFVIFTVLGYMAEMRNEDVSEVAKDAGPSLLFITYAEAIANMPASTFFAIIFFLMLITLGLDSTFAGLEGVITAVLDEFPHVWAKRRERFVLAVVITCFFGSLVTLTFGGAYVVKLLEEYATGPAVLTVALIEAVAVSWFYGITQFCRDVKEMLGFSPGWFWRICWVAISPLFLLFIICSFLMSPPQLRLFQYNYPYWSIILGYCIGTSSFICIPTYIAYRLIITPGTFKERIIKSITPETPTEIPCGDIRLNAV
endpoint.name: Ki (nM)

Worked cases, answers included:
>>> df
                               smiles_input  endpoint_name  readout_number
0  CN(C)CCCN1c2ccccc2CCc2ccc(CCCOCCCOCCCN3c4ccccc4CCc4ccccc43)cc21             Ki             640
1  CN(C)CCCN1c2ccccc2CCc2ccc(C#CCOCCCOCCCN3c4ccccc4CCc4ccccc43)cc21             Ki            2800

P = CN(C)CCCN1c2ccccc2CCc2ccc(CCCOCCOCCc3cccc4ccccc34)cc21
Q = CN(C)CCCN1c2ccccc2CCc2ccc(C#CCOCCCOc3cccc4ccccc34)cc21
R = CN(C)CCCN1c2ccccc2CCc2ccc(C#CCO)cc21
Highest Ki first, then in falling order down to the smallest. Output spec: labels arranged per the requested ranking. Q, P, R
(Q: 1200 nM, P: 360 nM, R: 35 nM)
